target_entity: histone deacetylase (HDAC Enzyme)
assay: Inhibition of Histone Deacetylase Enzymatic Activity (Boc-Lys(Ac)-AMC, Fluor-de-Lys developer)
Assay type: biochemical
condition: Table 9; read-out: HDAC Inhibition (IC50 μM) HDAC Enzyme
Provide the reported IC50 of each item.

> print(dat)
                                 cpd.smiles  observed.property             val
1  O=C(NO)c1cnc(N2C[C@@H]3C[C@H]2CN3c2cccc(SC(F)(F)F)c2)nc1               IC50       < 0.05 µM
2  O=C(NO)c1cnc(N2C[C@@H]3C[C@H]2CN3c2ccc(Cl)cc2)nc1               IC50       < 0.05 µM
3  Cc1ccccc1N1C[C@@H]2C[C@H]1CN2c1ncc(C(=O)NO)cn1               IC50  0.05 to 0.1 µM
4  CN(C)Cc1cccc(N2C[C@@H]3C[C@H]2CN3c2ncc(C(=O)NO)cn2)c1               IC50       < 0.05 µM

Proceeding to the next compound to report its IC50.
histone deacetylase (HDAC Enzyme) / IC50 / O=C(NO)c1cnc(N2C[C@@H]3C[C@H]2CN3C(=O)OC2CCOCC2)nc1 : value?
< 0.05 µM

---

target_entity: histone deacetylase (HDAC Enzyme)
assay: Inhibition of Histone Deacetylase Enzymatic Activity (Boc-Lys(Ac)-AMC, Fluor-de-Lys developer)
Type: biochemical
condition: Table 10; read-out: HDAC Inhibition (IC50 μM) HDAC Enzyme
observed_property: IC50

Below: 4 compounds and their reported IC50.
> print(dat)
                                   compound  observed.property          val
1  O=C(NO)c1cnc(NC2c3ccccc3C=Cc3ccccc32)nc1               IC50    < 0.05 µM
2  O=C(/C=C/c1ccc(CN2C(=O)c3ccccc3Oc3ccccc32)cc1)NO               IC50    < 0.05 µM
3  O=C(NO)c1ccc(N2C(=O)c3ccccc3Oc3ccccc32)cc1               IC50  0.1 to 1 µM
4  O=C(NO)c1cccc(CNC2c3ccccc3CCc3ccccc32)c1               IC50  0.1 to 1 µM

I have 3 compounds here; please give me IC50 for each one.
1. O=C(NO)c1cnc(NC2c3ccccc3CCc3ccccc32)nc1
2. O=C(NO)c1cnc(NC(c2ccc(F)cc2)c2ccc(F)cc2)nc1
3. O=C(CCCCCC(=O)NC1c2ccccc2C=Cc2ccccc21)NO

< 0.05 µM
< 0.05 µM
0.1 to 1 µM

Hi! Can you tell me IC50 for each of these compounds?
1. O=C(NO)c1cnc(N2CCn3c(nnc3C(F)(F)F)C2)nc1
2. O=C(CCCCCCN1C(=O)c2ccccc2Oc2ccccc21)NO
3. O=C(NO)c1ccc(CN2c3ccccc3C=Cc3ccccc32)cc1
4. O=C(CCCCCON=c1c2ccccc2ccc2ccccc12)NO
5. O=C(CN1c2ccccc2C=Cc2ccccc21)NO
6. O=C(CCCCCC(=O)N1c2ccccc2C=Cc2ccccc21)NO

1. 0.05 to 0.1 µM
2. < 0.05 µM
3. < 0.05 µM
4. 0.1 to 1 µM
5. 1 to 10 µM
6. < 0.05 µM

---

target_entity: histone deacetylase (HDAC Enzyme)
assay: Inhibition of Histone Deacetylase Enzymatic Activity (Boc-Lys(Ac)-AMC, Fluor-de-Lys developer)
Assay type: biochemical
condition: read-out: HDAC Inhibtion (IC50 μM) HDAC Enzyme
observed_property: IC50

Use these answered entries as a reference point.
> print(dat)
                                 cpd.smiles             val
1    O=C(NO)c1ccc(C2=Nc3ccccc3Oc3ccccc32)s1       < 0.05 µM
2   O=C(NO)c1ccc(C2=Nc3ccccc3Oc3ncccc32)cc1  0.05 to 0.1 µM
3  Cc1cccc2c1Oc1ccccc1N=C2c1ccc(C(=O)NO)cc1  0.05 to 0.1 µM
4  O=C(NO)c1ccc(C2=Nc3cc(Cl)ccc3Oc3ccccc32)cc1     0.1 to 1 µM

Query (compound): COc1ccc2c(c1)Oc1ccccc1N=C2c1ccc(C(=O)NO)cc1 ; field requested: IC50
0.1 to 1 µM

---

target_entity: histone deacetylase (HDAC Enzyme)
assay: Inhibition of Histone Deacetylase Enzymatic Activity (Boc-Lys(Ac)-AMC, Fluor-de-Lys developer)
Type: biochemical
condition: Table 9; read-out: HDAC Inhibition (IC50 μM) HDAC Enzyme
observed_property: IC50

// worked examples, IC50 included
> print(dat)
                                 cpd.smiles             val
1  O=C(NO)c1cnc(N2C[C@@H]3C[C@H]2CN3c2ccc(F)cc2)nc1  0.05 to 0.1 µM
2  O=C(NO)c1cnc(N2C[C@@H]3C[C@H]2CN3c2ccc3nsnc3c2)nc1       < 0.05 µM
3  O=C(NO)c1cnc(N2C[C@@H]3C[C@H]2CN3c2cccc(OC(F)(F)F)c2)nc1       < 0.05 µM
4  CC(C)OC(=O)N1C[C@@H]2C[C@H]1CN2c1ncc(C(=O)NO)cn1       < 0.05 µM
5  O=C(NO)c1cnc(N2C[C@@H]3C[C@H]2CN3C(=O)c2cccc(C(F)(F)F)c2)nc1  0.05 to 0.1 µM

Count: 4. Required value per item: IC50.
1. O=C(NO)c1cnc(N2C[C@@H]3C[C@H]2CN3C(=O)OCc2cccnc2)nc1
2. Cc1cccc(N2C[C@@H]3C[C@H]2CN3c2ncc(C(=O)NO)cn2)c1
3. O=C(NO)c1cnc(N2C[C@@H]3C[C@H]2CN3C(=O)OCc2ccccc2)nc1
4. O=C(NO)c1cnc(N2C[C@@H]3C[C@H]2CN3c2ccc3c(c2)OCO3)nc1

1: < 0.05 µM; 2: < 0.05 µM; 3: < 0.05 µM; 4: < 0.05 µM

Could you share which IC50 value was measured for O=C(NO)c1cnc(N2C[C@@H]3C[C@H]2CN3c2ccc(C(F)(F)F)cc2)nc1 ?
< 0.05 µM

---

target_entity: histone deacetylase (HDAC Enzyme)
assay: Inhibition of Histone Deacetylase Enzymatic Activity (Boc-Lys(Ac)-AMC, Fluor-de-Lys developer)
Type: biochemical
condition: Table 10; read-out: HDAC Inhibition (IC50 μM) HDAC Enzyme
observed_property: IC50

> print(dat)
                                 cpd.smiles  observed.property          val
1        O=C(CCCCCN1c2ccccc2C=Cc2ccccc21)NO               IC50    < 0.05 µM
2  O=C(NO)c1cnc(N2CCC[C@H]2c2nc3ccccc3[nH]2)nc1               IC50  0.1 to 1 µM
3    O=C(NO)c1cnc(NC2c3ccccc3-c3ccccc32)nc1               IC50  0.1 to 1 µM
4  O=C(NO)c1ccc(CN2C(=O)c3ccccc3Oc3ccccc32)cc1               IC50    < 0.05 µM
5  O=C(NO)c1cnc(NCC2c3ccccc3CCc3ccccc32)nc1               IC50    < 0.05 µM
6     O=C(NO)c1cnc(NC(c2ccccc2)c2ccccc2)nc1               IC50    < 0.05 µM
7  O=C(NO)c1ccc(CON=C2c3ccccc3CCc3ccccc32)cc1               IC50  0.1 to 1 µM
8  O=C(NO)c1ccc(OCCN2C(=O)c3cccnc3Oc3ccccc32)cc1               IC50    < 0.05 µM

Provide IC50 for all items below, preserving their order.
1. O=C(NO)c1ccc(OCCN2C(=O)c3ccccc3Oc3ccccc32)cc1Cl
2. O=C(NO)c1cnc(N2CCCN(c3ncc(C(F)(F)F)cc3Cl)CC2)nc1
3. O=C(NO)c1ccc(CN2C(=O)c3ccccc3CCc3ccccc32)cc1

1. 1 to 10 µM
2. < 0.05 µM
3. 0.1 to 1 µM

---

target_entity: histone deacetylase (HDAC Enzyme)
assay: Inhibition of Histone Deacetylase Enzymatic Activity (Boc-Lys(Ac)-AMC, Fluor-de-Lys developer)
Assay type: biochemical
condition: Table 10; read-out: HDAC Inhibition (IC50 μM) HDAC Enzyme
observed_property: IC50

Worked examples follow.
> print(dat)
                                 cpd.smiles          val
1  O=C(CCCCCCCN1C(=O)c2cccnc2N(C2CC2)c2ccccc21)NO  0.1 to 1 µM
2   O=C(NO)c1ccc(NC2c3ccccc3CCc3ccccc32)nc1    < 0.05 µM
3  O=C(NO)c1cnc(N2C[C@H]3C[C@@]3(c3ccc(Cl)c(Cl)c3)C2)nc1  0.1 to 1 µM

Kindly give each listed record's IC50.
1. O=C(NO)c1ccc(OCCN2CCOc3ccccc3C2=O)cc1
2. O=C(NO)c1cnc(N2CCN(C3c4ccccc4CCc4ccccc43)CC2)nc1
3. O=C(NO)c1ccc(OCC(=O)N2Cc3ccccc3Oc3ccccc32)cc1
4. O=C(CCCCCCOc1nc2ccccc2c2ccccc12)NO
5. O=C(NO)c1ccc(C#CCN2C(=O)c3ccccc3Oc3ccccc32)cc1

1. < 0.05 µM
2. 0.1 to 1 µM
3. 0.1 to 1 µM
4. < 0.05 µM
5. < 0.05 µM

The following compounds each have a reported value; give each one's IC50.
1. O=C(NO)c1cnc(N2C[C@H]3C[C@@]3(c3ccccc3)C2)nc1
2. O=C(CCc1ccc(CN2C(=O)c3ccccc3Oc3ccccc32)cc1)NO
3. O=C(NO)c1ccc(CN2C(=O)c3cccnc3N(C3CC3)c3ccccc32)cc1
4. CN1CCC2=C(C1)Oc1ccccc1N(CCOc1ccc(C(=O)NO)cc1)C2=O

1: 0.1 to 1 µM; 2: 0.1 to 1 µM; 3: 0.1 to 1 µM; 4: < 0.05 µM

// for each compound below, give its IC50
1. O=C(CCCON=C1c2ccccc2CCc2ccccc21)NO
2. O=C(CCCCCCN1C(=O)c2cccnc2N(C2CC2)c2ccccc21)NO
3. O=C(/C=C/c1ccc2c(c1)C=Cc1ccccc1N2CC1CC1)NO
4. O=C(C=C1c2ccccc2C=Cc2ccccc21)NO
5. O=C(NO)c1ccc(CCCN2C(=O)c3ccccc3Oc3ccccc32)cc1
6. O=C(CCCCCCCN1C(=O)c2ccccc2Oc2ccccc21)NO

0.1 to 1 µM
0.05 to 0.1 µM
0.1 to 1 µM
0.1 to 1 µM
0.05 to 0.1 µM
0.05 to 0.1 µM

Below are some compounds; for each one, tell me its IC50.
1. O=C(CCCCCCC(=O)N1Cc2ccccc2Oc2ccccc21)NO
2. O=C(NO)c1ccc(OCCN2C(=O)c3ccncc3Oc3ccccc32)cc1

1: 0.1 to 1 µM; 2: < 0.05 µM

Below are 3 compounds. Give each one its IC50.
1. O=C(NO)c1ccc(COC2c3ccccc3CCc3ccccc32)cc1
2. O=C(NO)c1cccc(CN2c3ccccc3C=Cc3ccccc32)c1
3. O=C(CCCCCN1C(=O)CN=C(c2ccccc2)c2ccccc21)NO

["0.1 to 1 µM", "0.1 to 1 µM", "0.1 to 1 µM"]

Hey, just so you know, these numbers are from patent US8399452B2.
